- Target Desc: T1, hRARα/mRXRα LBD heterodimer (human | mouse, UniProt P10276 153-421; P28700 228-467)
- T1 construct: Heterodimer formed beforehand; small-molecule ligands (atRA, LG100754, AM580, BMS614, BMS649, 9-cisRA, HX531) differ between experiments and are named in the assays; also called RARα/RXRα LBD; RAR/RXR; not shown: His6, N-terminal, kept; copies: 1 + 1
- T1 sequence (looked up) 1: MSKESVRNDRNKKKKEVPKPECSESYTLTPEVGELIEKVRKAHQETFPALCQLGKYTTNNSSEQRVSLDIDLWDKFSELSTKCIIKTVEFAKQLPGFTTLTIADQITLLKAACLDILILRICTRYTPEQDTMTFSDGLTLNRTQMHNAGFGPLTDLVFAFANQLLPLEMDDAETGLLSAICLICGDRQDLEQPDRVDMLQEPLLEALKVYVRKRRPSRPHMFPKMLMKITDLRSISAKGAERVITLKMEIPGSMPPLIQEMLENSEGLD
- T1 sequence (looked up) 2: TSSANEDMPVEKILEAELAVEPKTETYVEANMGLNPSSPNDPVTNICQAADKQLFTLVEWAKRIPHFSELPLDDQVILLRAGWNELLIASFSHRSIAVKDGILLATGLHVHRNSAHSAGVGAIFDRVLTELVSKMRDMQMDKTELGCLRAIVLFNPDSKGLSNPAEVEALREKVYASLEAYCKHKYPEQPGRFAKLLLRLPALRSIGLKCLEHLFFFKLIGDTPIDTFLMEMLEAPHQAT
- Test Name: fluorescence polarisation; fluorescence anisotropy; hRARα/mRXRα LBDs added to 1 µM TAMRA-SRC-1 NR2 peptide; 20°C; 10 mM TRIS-HCl pH 7.5, 150 mM NaCl, 10 mM DTT; apparent; RAR ligand AM580, RXR ligand BMS649; two sites, fit gave k2 identical to k1
- Run Parameters: both partners purified
No end group written: not given here.
Metric: Kd

For RHKILHRLLQEGS (also: TAMRA label, position not given here, also called (TAMRA) – SRC-1 NR2 peptide; source: bought: Neosystem (Strasbourg, France)) [TAMRA-labeled SRC-1 NR2 peptide (686-RHKILHRLLQEGS-698)] , what is its reported Kd? 290 nM
